We begin with a simple list: items and their reported MIC.
Tested on: Escherichia coli
ASSAY: Antibacterial activity against Escherichia coli ATCC 25922 assessed as growth inhibition after 24 hr by serial broth dilution method
Format: functional
MEASUREMENT SETUP: ATCC 25922, 24 h
Number in µg/mL, nothing else.

Ask: Quick one: give measured MIC for O=C(O)c1cn(C2CC2)c2cc(N3CCNCC3)c(F)cc2c1=O
Result: 15

====

Test system: Bacillus subtilis
ASSAY: Antibacterial activity against Bacillus subtilis ATCC 11774 assessed as initial concentration required for appearance of zone of inhibition after 24 hr
Assay type: functional
We begin with a simple list: items and their reported Activity.

Previously resolved entries follow.
{"columns": ["COMPOUND", "RECORDED MEASUREMENT"],
 "data": [
  ["O=C(O)c1cn(C2CC2)c2cc(N3CCNCC3)c(F)cc2c1=O", "5 µg/mL"],
  ["O=C(NCCn1c(-c2ccccc2)nc2ccc([N+](=O)[O-])cc2c1=O)Nc1ccc(Cl)cc1", "70 µg/mL"],
  ["Cc1ccc(NC(=O)NCCn2c(-c3ccccc3)nc3ccc([N+](=O)[O-])cc3c2=O)cc1", "70 µg/mL"],
  ["O=C(NCCn1c(-c2ccccc2)nc2ccc([N+](=O)[O-])cc2c1=O)Nc1cc(C(F)(F)F)cc(C(F)(F)F)c1", "70 µg/mL"],
  ["Cc1ccccc1NC(=O)NCCn1c(-c2ccccc2)nc2ccc([N+](=O)[O-])cc2c1=O", "100 µg/mL"]
]}

Ask: Quick one: give measured Activity for O=C(NCCn1c(-c2ccccc2)nc2ccc([N+](=O)[O-])cc2c1=O)Nc1ccccc1Cl
Result: 70 µg/mL

Ask: Quick one: give measured Activity for O=C(NCCn1c(-c2ccccc2)nc2ccc([N+](=O)[O-])cc2c1=O)Nc1ccc(C(F)(F)F)cc1
Result: 70 µg/mL

Ask: Quick one: give measured Activity for O=C(NCCn1c(-c2ccccc2)nc2ccc([N+](=O)[O-])cc2c1=O)Nc1ccccc1
Result: 100 µg/mL

Ask: Quick one: give measured Activity for CC1CCC(NC(=O)NCCn2c(-c3ccccc3)nc3ccc([N+](=O)[O-])cc3c2=O)CC1 (configuration not stated)
Result: 100 µg/mL

Ask: Quick one: give measured Activity for CSc1ccc(NC(=O)NCCn2c(-c3ccccc3)nc3ccc([N+](=O)[O-])cc3c2=O)cc1
Result: 70 µg/mL

Ask: Quick one: give measured Activity for O=C(NCCn1c(-c2ccccc2)nc2ccc([N+](=O)[O-])cc2c1=O)NC1CCCCC1
Result: 200 µg/mL

Ask: Quick one: give measured Activity for O=C(NCCn1c(-c2ccccc2)nc2ccc([N+](=O)[O-])cc2c1=O)Nc1cc(C(F)(F)F)ccc1Cl
Result: 100 µg/mL

====

System: Candida albicans
ASSAY: Antifungal activity against Candida albicans ATCC 66027 assessed as growth inhibition after 24 hr by serial broth dilution method
Format: functional
MEASUREMENT SETUP: ATCC 66027, 24 h
MEASUREMENT LABEL: MIC (µg/mL)
Number in µg/mL, nothing else.

Previously resolved entries follow.
{"columns": ["SMILES DATA", "MIC / µg/mL"],
 "data": [
  ["O=C(NCCn1c(-c2ccccc2)nc2ccc([N+](=O)[O-])cc2c1=O)Nc1ccc(C(F)(F)F)cc1", 40],
  ["O=C(NCCn1c(-c2ccccc2)nc2ccc([N+](=O)[O-])cc2c1=O)Nc1cc(C(F)(F)F)cc(C(F)(F)F)c1", 20]
]}

Ask: Quick one: give measured MIC for O=C(NCCn1c(-c2ccccc2)nc2ccc([N+](=O)[O-])cc2c1=O)Nc1ccc(Cl)cc1
Result: 40

====

System: Candida albicans
ASSAY: Antifungal activity against Candida albicans ATCC 66027 assessed as growth inhibition after 24 hr by serial broth dilution method
Type: functional
MEASUREMENT SETUP: ATCC 66027, 24 h
MEASUREMENT LABEL: MIC (µg/mL)
Number in µg/mL, nothing else.

{"columns": ["COMPOUND", "MIC / µg/mL"],
 "data": [
  ["O=C(NCCn1c(-c2ccccc2)nc2ccc([N+](=O)[O-])cc2c1=O)NC1CCCCC1", 20],
  ["Cc1ccccc1NC(=O)NCCn1c(-c2ccccc2)nc2ccc([N+](=O)[O-])cc2c1=O", 20],
  ["O=C(NCCn1c(-c2ccccc2)nc2ccc([N+](=O)[O-])cc2c1=O)Nc1cc(C(F)(F)F)ccc1Cl", 20]
]}

Ask: Consider the compound O=C(NCCn1c(-c2ccccc2)nc2ccc([N+](=O)[O-])cc2c1=O)Nc1ccccc1 tested on Candida albicans; state its MIC.
Result: 20

Ask: Consider the compound CC1CCC(NC(=O)NCCn2c(-c3ccccc3)nc3ccc([N+](=O)[O-])cc3c2=O)CC1 (centres undefined) tested on Candida albicans; state its MIC.
Result: 10

Ask: Consider the compound OC(Cn1cncn1)(Cn1cncn1)c1ccc(F)cc1F tested on Candida albicans; state its MIC.
Result: 5

Ask: Consider the compound O=C(NCCn1c(-c2ccccc2)nc2ccc([N+](=O)[O-])cc2c1=O)Nc1ccccc1Cl tested on Candida albicans; state its MIC.
Result: 20

Ask: Consider the compound Cc1ccc(NC(=O)NCCn2c(-c3ccccc3)nc3ccc([N+](=O)[O-])cc3c2=O)cc1 tested on Candida albicans; state its MIC.
Result: 20

Ask: Consider the compound CSc1ccc(NC(=O)NCCn2c(-c3ccccc3)nc3ccc([N+](=O)[O-])cc3c2=O)cc1 tested on Candida albicans; state its MIC.
Result: 20

====

Test system: Escherichia coli
ASSAY: Antibacterial activity against Escherichia coli ATCC 25922 assessed as growth inhibition after 24 hr by serial broth dilution method
Format: functional
MEASUREMENT SETUP: ATCC 25922, 24 h
We begin with a simple list: items and their reported MIC.
Number in µg/mL, nothing else.

{"columns": ["SMILES DATA", "ASSAY TARGET", "MIC / µg/mL"],
 "data": [
  ["CSc1ccc(NC(=O)NCCn2c(-c3ccccc3)nc3ccc([N+](=O)[O-])cc3c2=O)cc1", "Escherichia coli", 40]
]}

Ask: Quick one: give measured MIC for O=C(NCCn1c(-c2ccccc2)nc2ccc([N+](=O)[O-])cc2c1=O)Nc1cc(C(F)(F)F)cc(C(F)(F)F)c1
Result: 100

Ask: Quick one: give measured MIC for O=C(NCCn1c(-c2ccccc2)nc2ccc([N+](=O)[O-])cc2c1=O)Nc1ccc(Cl)cc1
Result: 40

====

Test system: Escherichia coli
ASSAY: Antibacterial activity against Escherichia coli ATCC 25922 assessed as initial concentration required for appearance of zone of inhibition after 24 hr
Type: functional
We begin with a simple list: items and their reported Activity.
Number in µg/mL, nothing else.

Previously resolved entries follow.
{"columns": ["SMILES DATA", "ASSAY TARGET", "Activity [µg/mL]"],
 "data": [
  ["O=C(NCCn1c(-c2ccccc2)nc2ccc([N+](=O)[O-])cc2c1=O)Nc1ccc(C(F)(F)F)cc1", "Escherichia coli", 100],
  ["O=C(NCCn1c(-c2ccccc2)nc2ccc([N+](=O)[O-])cc2c1=O)Nc1cc(C(F)(F)F)ccc1Cl", "Escherichia coli", 70]
]}

Moving on to the next molecule.
Ask: Quick one: give measured Activity for O=C(NCCn1c(-c2ccccc2)nc2ccc([N+](=O)[O-])cc2c1=O)Nc1ccccc1
Result: 100

====

We begin with a simple list: items and their reported zone of inhibition at 100 µg/mL.
System: Bacillus subtilis
ASSAY: Antibacterial activity against Bacillus subtilis ATCC 11774 assessed as growth inhibition at 100 ug/ml after 24 hr by Kirby-Bauer disk diffusion method
Assay type: functional
MEASUREMENT SETUP: ATCC 11774, 24 h, read-out: DIZ
Number in mm, nothing else.

Previously resolved entries follow.
{"columns": ["COMPOUND", "DISPLAY UNIT", "RECORDED MEASUREMENT"],
 "data": [
  ["CSc1ccc(NC(=O)NCCn2c(-c3ccccc3)nc3ccc([N+](=O)[O-])cc3c2=O)cc1", "mm", 12],
  ["O=C(NCCn1c(-c2ccccc2)nc2ccc([N+](=O)[O-])cc2c1=O)Nc1ccccc1", "mm", 11],
  ["O=C(NCCn1c(-c2ccccc2)nc2ccc([N+](=O)[O-])cc2c1=O)Nc1ccc(Cl)cc1", "mm", 12],
  ["O=C(NCCn1c(-c2ccccc2)nc2ccc([N+](=O)[O-])cc2c1=O)Nc1ccccc1Cl", "mm", 12],
  ["O=C(NCCn1c(-c2ccccc2)nc2ccc([N+](=O)[O-])cc2c1=O)Nc1ccc(C(F)(F)F)cc1", "mm", 12],
  ["O=C(NCCn1c(-c2ccccc2)nc2ccc([N+](=O)[O-])cc2c1=O)Nc1cc(C(F)(F)F)cc(C(F)(F)F)c1", "mm", 14]
]}

Ask: Quick one: give measured zone of inhibition at 100 µg/mL for Cc1ccc(NC(=O)NCCn2c(-c3ccccc3)nc3ccc([N+](=O)[O-])cc3c2=O)cc1
Result: 12

Ask: Quick one: give measured zone of inhibition at 100 µg/mL for O=C(NCCn1c(-c2ccccc2)nc2ccc([N+](=O)[O-])cc2c1=O)Nc1cc(C(F)(F)F)ccc1Cl
Result: 11

Ask: Quick one: give measured zone of inhibition at 100 µg/mL for Cc1ccccc1NC(=O)NCCn1c(-c2ccccc2)nc2ccc([N+](=O)[O-])cc2c1=O
Result: 11

Ask: Quick one: give measured zone of inhibition at 100 µg/mL for CC1CCC(NC(=O)NCCn2c(-c3ccccc3)nc3ccc([N+](=O)[O-])cc3c2=O)CC1 (stereo not given)
Result: 11
